Target: USP47 (UniProt Q96K76)
Sequence (Q96K76 whole entry, the tested form may be a part): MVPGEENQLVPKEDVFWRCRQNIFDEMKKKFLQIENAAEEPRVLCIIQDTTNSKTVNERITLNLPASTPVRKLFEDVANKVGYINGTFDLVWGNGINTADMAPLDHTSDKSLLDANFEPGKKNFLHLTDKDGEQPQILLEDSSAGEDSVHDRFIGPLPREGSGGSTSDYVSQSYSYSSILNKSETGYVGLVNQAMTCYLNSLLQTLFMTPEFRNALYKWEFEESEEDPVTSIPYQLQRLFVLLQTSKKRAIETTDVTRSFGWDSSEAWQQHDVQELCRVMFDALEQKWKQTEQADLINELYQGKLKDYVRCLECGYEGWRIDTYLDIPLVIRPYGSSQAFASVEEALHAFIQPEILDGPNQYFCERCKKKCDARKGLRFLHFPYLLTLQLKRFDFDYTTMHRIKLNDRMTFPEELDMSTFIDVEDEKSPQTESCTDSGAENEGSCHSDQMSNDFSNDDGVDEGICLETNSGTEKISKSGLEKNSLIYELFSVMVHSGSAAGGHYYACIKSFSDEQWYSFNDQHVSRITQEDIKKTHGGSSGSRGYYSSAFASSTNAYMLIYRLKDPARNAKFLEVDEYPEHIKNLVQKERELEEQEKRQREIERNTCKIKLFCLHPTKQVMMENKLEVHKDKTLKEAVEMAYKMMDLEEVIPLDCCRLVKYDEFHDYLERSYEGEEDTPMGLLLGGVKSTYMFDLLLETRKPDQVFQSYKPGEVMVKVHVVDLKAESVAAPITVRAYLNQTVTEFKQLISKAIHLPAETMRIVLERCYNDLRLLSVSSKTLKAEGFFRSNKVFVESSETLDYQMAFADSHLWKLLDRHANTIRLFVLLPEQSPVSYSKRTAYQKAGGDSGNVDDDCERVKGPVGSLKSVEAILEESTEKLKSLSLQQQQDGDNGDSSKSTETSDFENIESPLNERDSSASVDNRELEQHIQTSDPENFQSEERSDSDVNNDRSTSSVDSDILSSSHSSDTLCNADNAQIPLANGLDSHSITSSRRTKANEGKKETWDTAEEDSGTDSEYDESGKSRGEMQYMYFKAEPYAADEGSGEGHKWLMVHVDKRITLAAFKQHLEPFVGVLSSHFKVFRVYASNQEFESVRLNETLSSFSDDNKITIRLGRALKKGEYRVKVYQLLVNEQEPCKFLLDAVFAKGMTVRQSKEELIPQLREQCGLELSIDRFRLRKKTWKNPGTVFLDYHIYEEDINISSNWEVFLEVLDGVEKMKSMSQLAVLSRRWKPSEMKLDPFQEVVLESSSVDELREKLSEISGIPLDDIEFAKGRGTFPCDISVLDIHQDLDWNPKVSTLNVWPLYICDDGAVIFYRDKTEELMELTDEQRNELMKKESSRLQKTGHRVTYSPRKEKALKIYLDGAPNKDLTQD
Assay: log2 ratio of Biotin-Ahx-Ub-VS probe labelling (fragment/DMSO); higher = less target engagement (more negative = stronger competition), active = hit call of the paper (q ≤ 0.05, log2 ratio ≤ -1)
Settings: compound concentration: 200 uM; treatment time: 3 h
ENDPOINT_NAME: log2 ratio of Biotin-Ahx-Ub-VS probe labelling

Please review the following examples before continuing.
COMPOUND	ENDPOINT_RESULT
O=C(CCl)N(Cc1ccsc1)C1CC1	-0.631 (inactive)
Cl.Cn1ncc2c1CC(NC(=O)CCl)CC2 (configuration not stated)	0.118 (inactive)
NC(=O)C1CCCCN1C(=O)CCl (configuration not stated)	-0.299 (inactive)
CC(=O)C1CCCCN1C(=O)CCl (configuration not stated)	-0.0598 (inactive)
O=C(CN1CCN(C(=O)CCl)CC1)Nc1cccc(F)c1	-0.178 (inactive)
Cc1cccc(C)c1NC(=O)CCl	0.139 (inactive)

Would you kindly look at the next entry?
Record O=C(CCl)N1CCC(S(=O)(=O)c2ccc(F)cc2)CC1 ; system USP47 (UniProt Q96K76); log2 ratio of Biotin-Ahx-Ub-VS probe labelling = -0.145 (inactive)

* * *

Target: USP38 (UniProt Q8NB14)
Sequence (whole entry): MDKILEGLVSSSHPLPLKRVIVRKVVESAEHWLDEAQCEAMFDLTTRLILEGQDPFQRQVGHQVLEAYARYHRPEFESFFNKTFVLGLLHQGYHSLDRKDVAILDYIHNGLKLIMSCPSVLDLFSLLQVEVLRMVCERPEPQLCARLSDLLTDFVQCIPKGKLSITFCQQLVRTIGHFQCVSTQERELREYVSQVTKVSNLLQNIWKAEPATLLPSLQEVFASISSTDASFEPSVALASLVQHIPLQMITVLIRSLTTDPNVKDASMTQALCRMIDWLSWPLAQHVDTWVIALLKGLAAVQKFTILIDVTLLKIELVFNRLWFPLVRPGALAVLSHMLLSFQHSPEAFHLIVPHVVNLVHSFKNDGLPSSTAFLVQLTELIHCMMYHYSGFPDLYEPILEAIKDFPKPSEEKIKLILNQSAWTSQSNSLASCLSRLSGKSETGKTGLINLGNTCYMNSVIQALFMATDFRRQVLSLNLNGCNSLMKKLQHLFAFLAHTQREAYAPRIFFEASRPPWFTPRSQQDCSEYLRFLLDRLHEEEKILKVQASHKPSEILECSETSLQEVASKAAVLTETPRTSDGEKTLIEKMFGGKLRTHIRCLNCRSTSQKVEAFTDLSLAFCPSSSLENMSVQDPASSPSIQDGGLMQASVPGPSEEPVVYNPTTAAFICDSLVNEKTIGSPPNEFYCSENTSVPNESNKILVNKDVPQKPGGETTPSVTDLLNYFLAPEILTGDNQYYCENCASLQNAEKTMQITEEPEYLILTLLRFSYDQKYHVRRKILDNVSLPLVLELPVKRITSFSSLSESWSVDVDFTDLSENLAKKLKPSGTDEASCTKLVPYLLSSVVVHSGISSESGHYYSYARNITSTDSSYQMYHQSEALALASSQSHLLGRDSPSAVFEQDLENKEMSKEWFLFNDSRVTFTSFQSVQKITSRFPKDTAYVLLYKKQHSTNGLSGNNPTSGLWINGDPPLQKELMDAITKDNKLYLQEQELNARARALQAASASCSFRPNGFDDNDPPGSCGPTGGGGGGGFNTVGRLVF
Test: log2 ratio of Biotin-Ahx-Ub-VS probe labelling (fragment/DMSO); higher = less target engagement (more negative = stronger competition), active = hit call of the paper (q ≤ 0.05, log2 ratio ≤ -1)
Conditions: compound concentration: 200 uM; treatment time: 3 h
Label scheme, based on log2 ratio of Biotin-Ahx-Ub-VS probe labelling: lower (below -0.1), middle (-0.1 to below -0.01), upper (-0.01 or more)

Some entries whose results are on file:
COMPOUND	LABEL_VALUE
Cc1ccn2cc(CNC(=O)CCl)nc2c1.Cl	middle
O=C(CCl)N1CCCCC12CCOCC2	lower
CNC(=O)C1CCN(C(=O)CCl)CC1	upper

Assign a bin to O=C(CCl)N1CCCC2CCCCC21 (centres undefined) middle

Tag the class for Cc1ccc(CC(NC(=O)CCl)c2ccccn2)cc1.Cl (centres undefined) lower

* * *

Target: USP14 (UniProt P54578)
Sequence (P54578 whole entry, the tested form may be a part): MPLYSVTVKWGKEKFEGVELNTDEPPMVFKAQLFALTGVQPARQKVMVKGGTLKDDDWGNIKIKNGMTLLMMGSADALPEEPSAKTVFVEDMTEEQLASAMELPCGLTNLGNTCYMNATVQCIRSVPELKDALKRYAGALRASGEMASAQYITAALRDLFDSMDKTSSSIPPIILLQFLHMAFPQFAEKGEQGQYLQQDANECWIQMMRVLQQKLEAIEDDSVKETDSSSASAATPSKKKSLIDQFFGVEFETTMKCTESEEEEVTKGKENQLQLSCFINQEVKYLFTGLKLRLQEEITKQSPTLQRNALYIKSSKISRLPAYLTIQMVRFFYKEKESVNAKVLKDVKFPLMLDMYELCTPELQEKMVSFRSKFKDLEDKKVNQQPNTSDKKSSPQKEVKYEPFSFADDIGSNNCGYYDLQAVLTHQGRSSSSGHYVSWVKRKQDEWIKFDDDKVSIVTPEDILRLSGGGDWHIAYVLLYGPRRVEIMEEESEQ
Test: log2 ratio of Biotin-Ahx-Ub-VS probe labelling (fragment/DMSO); higher = less target engagement (more negative = stronger competition), active = hit call of the paper (q ≤ 0.05, log2 ratio ≤ -1)
Details: compound concentration: 200 uM; treatment time: 3 h
I would appreciate it if you answered using one of these outcomes: TRUE for active, FALSE for inactive

Example results:
COMPOUND	LABEL_VALUE
Cl.O=C(CCl)NCCN1CCc2ccccc21	FALSE
O=C(CCl)NCc1noc(C2CC2)n1	FALSE
O=C(CCl)N1CCN(C(=O)N2CCCCC2)CC1	TRUE
C/C(=C\CNC(=O)CCl)c1cnn(C)c1.Cl	FALSE
O=C(CCl)N1CCC(O)(Cc2ccc(F)cc2)C1 (centres undefined)	FALSE
CC(=O)Nc1ccc(NC(=O)CCl)cc1	FALSE

Please turn your attention to the following entry.
Which outcome was entered for the compound O=C(CCl)N1CCN(c2nc3ccccc3o2)CC1 in this test? FALSE

* * *

# log2 ratio of Biotin-Ahx-Ub-VS probe labelling per entry
Molecular target: UniProt P51784
Sequence (P51784 whole entry, the tested form may be a part): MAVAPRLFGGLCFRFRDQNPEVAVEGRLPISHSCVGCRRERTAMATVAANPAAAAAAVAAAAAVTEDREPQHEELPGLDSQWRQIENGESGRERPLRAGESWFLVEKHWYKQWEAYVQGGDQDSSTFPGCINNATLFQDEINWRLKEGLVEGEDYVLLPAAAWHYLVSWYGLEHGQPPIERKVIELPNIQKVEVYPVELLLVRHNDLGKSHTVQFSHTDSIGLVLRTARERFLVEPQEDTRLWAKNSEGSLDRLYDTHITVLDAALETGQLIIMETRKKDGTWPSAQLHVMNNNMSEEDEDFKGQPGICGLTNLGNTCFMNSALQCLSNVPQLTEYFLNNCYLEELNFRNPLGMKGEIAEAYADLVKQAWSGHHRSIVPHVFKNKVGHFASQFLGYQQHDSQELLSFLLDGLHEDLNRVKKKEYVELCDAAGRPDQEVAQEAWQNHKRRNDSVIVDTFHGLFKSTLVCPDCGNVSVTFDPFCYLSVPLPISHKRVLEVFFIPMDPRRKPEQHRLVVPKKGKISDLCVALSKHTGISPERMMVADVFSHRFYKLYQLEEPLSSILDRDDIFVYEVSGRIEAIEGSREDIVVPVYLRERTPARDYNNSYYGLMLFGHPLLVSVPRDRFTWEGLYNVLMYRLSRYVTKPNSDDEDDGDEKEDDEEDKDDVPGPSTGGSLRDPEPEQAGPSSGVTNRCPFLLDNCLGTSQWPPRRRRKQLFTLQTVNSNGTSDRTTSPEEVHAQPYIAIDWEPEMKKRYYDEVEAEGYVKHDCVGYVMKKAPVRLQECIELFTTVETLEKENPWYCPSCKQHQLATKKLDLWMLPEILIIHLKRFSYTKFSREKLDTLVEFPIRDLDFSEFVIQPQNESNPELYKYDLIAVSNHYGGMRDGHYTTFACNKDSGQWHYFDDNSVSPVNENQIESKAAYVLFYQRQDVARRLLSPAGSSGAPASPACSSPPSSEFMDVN
Experiment: log2 ratio of Biotin-Ahx-Ub-VS probe labelling (fragment/DMSO); higher = less target engagement (more negative = stronger competition), active = hit call of the paper (q ≤ 0.05, log2 ratio ≤ -1)
Settings: compound concentration: 200 uM; treatment time: 3 h
# print the numeric value only

Look over these answered cases.
MOLECULE	ENDPOINT_RESULT
O=C(CCl)NC(Cn1ccccc1=O)c1ccccc1 (stereo not given)	0.0376
COc1ccc(-c2csc(NC(=O)CCl)n2)cc1	-0.0937
O=C(CCl)NCCc1ccc2c(c1)OCCO2	0.0955
Cc1noc(C)c1CNC(=O)CCl	-0.582
Cl.O=C(CCl)N1CCc2ncncc2C1	0.0954
CC(NC(=O)CCl)c1ccc2[nH]ncc2c1 (stereo not given)	-0.173
O=C(CCl)Nc1cc2c(cc1Cl)OCCO2	0.121
Cc1ccc(C(=O)NCCNC(=O)CCl)cc1	0.00304

For reference, reported log2 ratio of Biotin-Ahx-Ub-VS probe labelling for CC(NC(=O)CCl)c1cccc2ccccc12 (stereo not given) stands at -0.0702

Entry O=C(CCl)NCCC1COCCO1 (stereo not given) ; log2 ratio of Biotin-Ahx-Ub-VS probe labelling = 0.182

* * *

Examples of compounds with documented log2 ratio of Biotin-Ahx-Ub-VS probe labelling follow.
Molecular target: UCHL1 (UniProt P09936)
Sequence (P09936 whole entry, looked up, the tested form may be a part): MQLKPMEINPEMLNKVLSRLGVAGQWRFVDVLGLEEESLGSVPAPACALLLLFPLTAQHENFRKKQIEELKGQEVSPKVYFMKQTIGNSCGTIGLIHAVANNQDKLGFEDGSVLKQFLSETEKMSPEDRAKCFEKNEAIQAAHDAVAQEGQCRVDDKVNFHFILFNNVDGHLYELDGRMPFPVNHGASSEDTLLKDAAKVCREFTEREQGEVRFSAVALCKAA
Experiment: log2 ratio of Biotin-Ahx-Ub-VS probe labelling (fragment/DMSO); higher = less target engagement (more negative = stronger competition), active = hit call of the paper (q ≤ 0.05, log2 ratio ≤ -1)
Details: compound concentration: 200 uM; treatment time: 3 h
Form: value (number only, do not type unit).

COMPOUND	ENDPOINT_RESULT
N#Cc1ccc(Cl)cc1NC(=O)CCl	-1.01
O=C(CCl)N1CCOC(c2cccc(F)c2)C1 (stereo unspecified)	-1.68
O=C(CCl)N1CCOCCC1c1ccccc1 (stereo unspecified)	-1.93
NS(=O)(=O)c1ccc(Cl)c(NC(=O)CCl)c1	-1.51

Let me check: Cc1ccc(C(=O)NCCNC(=O)CCl)cc1 , system UCHL1 (UniProt P09936), measured log2 ratio of Biotin-Ahx-Ub-VS probe labelling is -1.75

Measured on UCHL1 (UniProt P09936), O=C(CCl)N1CCc2[nH]c3ccccc3c2C1 has a documented log2 ratio of Biotin-Ahx-Ub-VS probe labelling of -1.24

Observed log2 ratio of Biotin-Ahx-Ub-VS probe labelling on UCHL1 (UniProt P09936), entry O=C(CCl)NC1CCC(C(F)(F)F)CC1 (stereo unspecified) , equals -1.31

* * *

Target: USP38 (UniProt Q8NB14)
Experiment: log2 ratio of Biotin-Ahx-Ub-VS probe labelling (fragment/DMSO); higher = less target engagement (more negative = stronger competition), active = hit call of the paper (q ≤ 0.05, log2 ratio ≤ -1)
Conditions: compound concentration: 200 uM; treatment time: 3 h
ENDPOINT_NAME: log2 ratio of Biotin-Ahx-Ub-VS probe labelling
Number only, no unit.

Below, each entry is followed by its recorded log2 ratio of Biotin-Ahx-Ub-VS probe labelling result.
COMPOUND	ENDPOINT_RESULT
NC(=O)C(Cc1ccccc1)NC(=O)CCl (centres undefined)	-0.0263
O=C(CCl)Nc1nnc(CC(F)(F)F)o1	-0.0633
Cc1cc(Cl)ccc1NC(=O)CCl	-0.0702
O=C(CCl)N1CCOC(c2cccc(F)c2)C1 (centres undefined)	-0.131
CC(c1ccccc1)N(C)C(=O)CCl (centres undefined)	-0.0902

For this compound ( O=C(CCl)Nc1ccc(N2CCCC2=O)cc1 ), measured log2 ratio of Biotin-Ahx-Ub-VS probe labelling is 0.147

log2 ratio of Biotin-Ahx-Ub-VS probe labelling reported for this compound O=C(CCl)Nc1ccc(Cl)c(F)c1 : -0.0529

Recorded log2 ratio of Biotin-Ahx-Ub-VS probe labelling (compound Cc1ccc(CNC(=O)CCl)nc1C.Cl ): 0.0543

Just so you know, measured log2 ratio of Biotin-Ahx-Ub-VS probe labelling for O=C(CCl)NCCc1cccc2ccccc12 came out at 0.0792

// recorded log2 ratio of Biotin-Ahx-Ub-VS probe labelling for O=C(CCl)NCC1(c2ccccc2)CC1 : 0.127

Data point: CC(NC(=O)CCl)c1cccc2ccccc12 (centres undefined) ; log2 ratio of Biotin-Ahx-Ub-VS probe labelling = 0.0489

In plain terms, O=C(CCl)N1CCC(S(=O)(=O)c2ccc(F)cc2)CC1 has a documented log2 ratio of Biotin-Ahx-Ub-VS probe labelling of -0.00588

In plain terms, CS(=O)(=O)N1CCCN(C(=O)CCl)CC1 has a documented log2 ratio of Biotin-Ahx-Ub-VS probe labelling of -0.0208

The compound listed as Cc1cnc2[nH]cc(CCNC(=O)CCl)c2c1 has a reported log2 ratio of Biotin-Ahx-Ub-VS probe labelling of 0.0877
